- SYSTEM_NAME: HRgpA-6H (Porphyromonas gingivalis) (UniProt P28784)
- METHOD_DESCRIPTION: ELISA, Fab FASEBA supernatant on coated HRgpA-6H
Classify on OD450nm using b0: < 0.7 OD450nm; b1: ≥ 0.7 OD450nm and < 0.8 OD450nm; b2: ≥ 0.8 OD450nm

parental mouse (KB001) Fab FASEBA, VL variant S95T (Fab, V domains shown) VH: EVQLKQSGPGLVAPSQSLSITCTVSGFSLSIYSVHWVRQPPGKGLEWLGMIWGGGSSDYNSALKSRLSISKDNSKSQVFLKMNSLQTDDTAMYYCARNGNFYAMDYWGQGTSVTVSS VL: QIVLTQSPAIMSASLGERVTMTCTASSSVSSSFLHWYQQKPGSSPQLWIYSTSNLASGVPARFSGSGSGTSYSLTISSMEAEDAATYYCHQYHHTPYIYTFGGGTKLEIK = b2

Q: Please let me know in which category the item parental mouse (KB001) Fab FASEBA, VL variant S95C (Fab, V domains shown) VH: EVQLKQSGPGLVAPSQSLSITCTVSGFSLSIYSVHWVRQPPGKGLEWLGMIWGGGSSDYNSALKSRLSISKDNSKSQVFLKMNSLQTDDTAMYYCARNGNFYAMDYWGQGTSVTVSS VL: QIVLTQSPAIMSASLGERVTMTCTASSSVSSSFLHWYQQKPGSSPQLWIYSTSNLASGVPARFSGSGSGTSYSLTISSMEAEDAATYYCHQYHHCPYIYTFGGGTKLEIK belongs.
A: b2

Q: Please let me know in which category the item parental mouse (KB001) Fab FASEBA, VL variant Q91M (Fab, V domains shown) VH: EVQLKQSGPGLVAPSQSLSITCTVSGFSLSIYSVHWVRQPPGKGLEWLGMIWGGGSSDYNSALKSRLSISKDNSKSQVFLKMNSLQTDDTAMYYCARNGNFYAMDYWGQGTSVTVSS VL: QIVLTQSPAIMSASLGERVTMTCTASSSVSSSFLHWYQQKPGSSPQLWIYSTSNLASGVPARFSGSGSGTSYSLTISSMEAEDAATYYCHMYHHSPYIYTFGGGTKLEIK belongs.
A: b1

Q: Please let me know in which category the item parental mouse (KB001) Fab FASEBA, VL variant Y97V (Fab, V domains shown) VH: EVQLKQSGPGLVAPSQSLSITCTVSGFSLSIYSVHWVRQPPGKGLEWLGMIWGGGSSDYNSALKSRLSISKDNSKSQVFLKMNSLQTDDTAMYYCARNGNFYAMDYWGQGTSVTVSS VL: QIVLTQSPAIMSASLGERVTMTCTASSSVSSSFLHWYQQKPGSSPQLWIYSTSNLASGVPARFSGSGSGTSYSLTISSMEAEDAATYYCHQYHHSPVIYTFGGGTKLEIK belongs.
A: b0

Q: Please let me know in which category the item parental mouse (KB001) Fab FASEBA, VL variant S95F (Fab, V domains shown) VH: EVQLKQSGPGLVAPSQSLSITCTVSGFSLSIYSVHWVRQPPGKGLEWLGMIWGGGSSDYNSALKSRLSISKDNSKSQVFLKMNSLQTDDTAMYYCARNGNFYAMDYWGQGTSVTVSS VL: QIVLTQSPAIMSASLGERVTMTCTASSSVSSSFLHWYQQKPGSSPQLWIYSTSNLASGVPARFSGSGSGTSYSLTISSMEAEDAATYYCHQYHHFPYIYTFGGGTKLEIK belongs.
A: b2

Q: Please let me know in which category the item parental mouse (KB001) Fab FASEBA, VL variant T100P (Fab, V domains shown) VH: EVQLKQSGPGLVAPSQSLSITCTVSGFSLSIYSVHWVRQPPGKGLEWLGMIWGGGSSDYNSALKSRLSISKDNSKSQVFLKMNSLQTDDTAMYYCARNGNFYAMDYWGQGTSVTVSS VL: QIVLTQSPAIMSASLGERVTMTCTASSSVSSSFLHWYQQKPGSSPQLWIYSTSNLASGVPARFSGSGSGTSYSLTISSMEAEDAATYYCHQYHHSPYIYPFGGGTKLEIK belongs.
A: b0

Q: Please let me know in which category the item parental mouse (KB001) Fab FASEBA, VL variant I98M (Fab, V domains shown) VH: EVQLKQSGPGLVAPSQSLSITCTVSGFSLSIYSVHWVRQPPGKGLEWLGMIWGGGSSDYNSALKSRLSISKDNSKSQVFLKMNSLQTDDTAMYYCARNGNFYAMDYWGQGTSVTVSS VL: QIVLTQSPAIMSASLGERVTMTCTASSSVSSSFLHWYQQKPGSSPQLWIYSTSNLASGVPARFSGSGSGTSYSLTISSMEAEDAATYYCHQYHHSPYMYTFGGGTKLEIK belongs.
A: b1

Q: Please let me know in which category the item parental mouse (KB001) Fab FASEBA, VL variant H94Y (Fab, V domains shown) VH: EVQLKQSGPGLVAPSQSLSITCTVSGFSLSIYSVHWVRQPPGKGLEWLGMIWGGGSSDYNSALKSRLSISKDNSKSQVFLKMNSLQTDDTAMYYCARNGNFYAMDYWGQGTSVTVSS VL: QIVLTQSPAIMSASLGERVTMTCTASSSVSSSFLHWYQQKPGSSPQLWIYSTSNLASGVPARFSGSGSGTSYSLTISSMEAEDAATYYCHQYHYSPYIYTFGGGTKLEIK belongs.
A: b2

Reference source: patent US20230365662A1
